# Test system: HIV-1RF
# Procedure Summary: XTT cytoprotection assay, HIV-1RF infection in CEM-SS cells
# Type: cell-based
# Assay Context: CC50/EC50 ratio, HIV-1RF in CEM-SS cells
Assay Endpoint: SI (CC50/EC50) CEM-SS cells
Answer using only a numeral; do not append any unit.

Before answering, review these 2 worked examples.
| Structure String | SI (CC50/EC50) CEM-SS cells |
| --- | --- |
| CON=C(F)c1cc(/C(=C\CCCc2nc(C)no2)c2cc(C)c3onc(OC)c3c2)cc(C)c1OC | 3 |
| CO/N=C(\Cl)CCC/C=C(/c1ccc(C#N)cc1)c1cc(C)c(OC)c(C(=O)SC)c1 | 25 |

Q: Could you tell me which SI (CC50/EC50) CEM-SS cells is on file for CO/N=C(\Cl)CCC/C=C(/c1cccc(C#N)c1)c1cc(C)c(OC)c(C(=O)SC)c1 ?
A: 52

Q: Please report the recorded SI (CC50/EC50) CEM-SS cells for CON=C(Cl)c1cc(/C(=C\CCCc2nnc(C)o2)c2cc(C)c3onc(OC)c3c2)cc(C)c1OC .
A: 2

Q: Entry CO/N=C(\Cl)CCC/C=C(\c1cc(C)c(OC)c(C(=O)SC)c1)c1cc(C)c2onc(OC)c2c1 : reported SI (CC50/EC50) CEM-SS cells = ?
A: 3

----------
# Procedure Summary: Cytotoxicity for mock-infected MT-4 cells
# Assay type: cell-based
# Assay Context: human
Assay Endpoint: CC50 (µM)
Write it as a number; the unit µM goes unstated.

Examples with their reported CC50 follow.
| Structure String | CC50, µM |
| --- | --- |
| CON=C(F)c1cc(/C(=C\CCCN2CCOC2=O)c2cccc(C#N)c2)cc(C)c1OC | 1.66 |
| CON=C(F)c1cc(/C(=C\CCCc2nnc(C)o2)c2cc(C)c3onc(OC)c3c2)cc(C)c1OC | 15.8 |
| CON=C(F)c1cc(/C(=C\CCCN2CCOC2=O)c2cc(C)c3oc(=O)n(C)c3c2)cc(C)c1OC | 7.53 |

Q: For CON=C(F)c1cc(/C(=C\CCCc2nc(C)no2)c2cc(C)c3onc(OC)c3c2)cc(C)c1OC , what is its reported CC50?
A: 9.66

----------
# System Under Test: HIV-1 reverse transcriptase (Human immunodeficiency virus type 1 group M subtype B, UniProt P04585)
// values below are reported IC50
Note: unit µM is implicit; provide only the numeric part.

Would you please look over these solved cases?
| Structure String | Assay Endpoint | Display Unit | Experimental Value |
| --- | --- | --- | --- |
| CON=C(Cl)c1cc(/C(=C\CCCN2CCOC2=O)c2cc(C)c3oc(=O)n(C)c3c2)cc(C)c1OC | IC50 | µM | 62.9 |
| CON=C(Cl)c1cc(/C(=C\CCCc2nc(C)no2)c2cc(C)c3oc(=O)n(C)c3c2)cc(C)c1OC | IC50 | µM | 4.19 |

Q: Query: IC50; subject: CON=C(F)c1cc(/C(=C\CCCc2nnc(C)o2)c2cc(C)c3oc(=O)n(C)c3c2)cc(C)c1OC
A: 3.4

----------
# Test system: HIV-1RF
# Procedure Summary: XTT cytoprotection assay, HIV-1RF infection in CEM-SS cells
# Type: cell-based
# Assay Context: Human immunodeficiency virus 1; inhibition of cytopathicity of HIV-1RF in CEM-SS cells
Assay Endpoint: EC50

Worked examples, 2 molecules total:
| Molecule | EC50 |
| --- | --- |
| CON=C(F)c1cc(/C(=C\CCCN2CCOC2=O)c2cc(C)c3oc(=O)n(C)c3c2)cc(C)c1OC [ADAM 6] | > 100 µM |
| CON=C(F)c1cc(/C(=C\CCCc2nnc(C)o2)c2ccc(C#N)cc2)cc(C)c1OC [ADAM 13] | > 100 µM |

Q: State the recorded EC50 for this entry: CON=C(Cl)c1cc(/C(=C\CCCN2CCOC2=O)c2ccc(C#N)cc2)cc(C)c1OC [ADAM 25]
A: > 100 µM

Q: Suppose we examine the molecule CON=C(F)c1cc(/C(=C\CCCc2nc(C)no2)c2cccc(C#N)c2)cc(C)c1OC [ADAM 11] ; what EC50 value has been reported?
A: > 100 µM

Q: # lookup: EC50 of CON=C(F)c1cc(/C(=C\CCCN2CCOC2=O)c2cc(C)c3onc(OC)c3c2)cc(C)c1OC [ADAM 9]
A: > 100 µM

----------
# System Under Test: HIV-1 reverse transcriptase (Human immunodeficiency virus type 1 group M subtype B, UniProt P04585)
# Procedure Summary: RT inhibition assay, incorporation of [32P]GTP into poly(rC)/oligo(dG) template primer
# Format: biochemical
# Assay Context: poly(rC):oligo(dG) as the template primer; mean of at least two experiments; read-out: IC50 inhibitory activity versus HIV-1 reverse transcriptase
Assay Endpoint: IC50

| Compound | Assay Endpoint | Experimental Value |
| --- | --- | --- |
| CON=C(F)c1cc(/C(=C\CCCN2CCOC2=O)c2cccc(C#N)c2)cc(C)c1OC [ADAM 12] | IC50 | > 100 µM |

Q: Value lookup for IC50; key = CON=C(Cl)c1cc(/C(=C\CCCc2nc(C)no2)c2cccc(C#N)c2)cc(C)c1OC [ADAM 22]
A: > 100 µM

Q: Item CON=C(F)c1cc(/C(=C\CCCN2CCOC2=O)c2cc(C)c3onc(OC)c3c2)cc(C)c1OC [ADAM 9] has what recorded IC50?
A: 46.7 µM

----------
This listing pairs molecules with measured SI (CC50/EC50) MT-4 cells.
# Tested on: HIV-1IIIB
# Procedure Summary: MTT assay, HIV-1IIIB in MT-4 cells
# Assay type: cell-based
# Assay Context: CC50/EC50 ratio, HIV-1IIIB in MT-4 cells
# Protocol: In Vitro Antiviral Assay. Evaluation of the antiviral activity of compounds against HIV- 1RF infection in CEM-SS cells was performed using the XTT cytoprotection assay, as previously described (Buckheit, R. W. Jr., et al., Antiviral Res. 1995, 26, 117-132). Evaluation of the antiviral activity of compounds against HIV-1IIIB and HIV-2ROD in MT-4 cells was performed using the MTT assay, as previously described (Rice, W. G. and Bader, J. P., Adv. Pharmacol. (San Diego) 1995, 33, 389-438).
Reply: number alone, nothing else.

| Structure String | Experimental Value |
| --- | --- |
| CON=C(Cl)c1cc(/C(=C\CCCc2nnc(C)o2)c2cccc(C#N)c2)cc(C)c1OC | 6 |

Q: For CON=C(F)c1cc(/C(=C\CCCc2nnc(C)o2)c2cc(C)c3onc(OC)c3c2)cc(C)c1OC , what is its reported SI (CC50/EC50) MT-4 cells?
A: 6

----------
# Test system: HIV-1RF
# Procedure Summary: XTT cytoprotection assay, HIV-1RF infection in CEM-SS cells
# Assay type: cell-based
# Assay Context: CC50/EC50 ratio, HIV-1RF in CEM-SS cells
Lab note: cut-off is 7. Strictly less in SI (CC50/EC50) CEM-SS cells is y. Exactly 7 or more is n.

Worked set:
| Structure String | System Under Test | Class Name |
| --- | --- | --- |
| CON=C(Cl)c1cc(/C(=C\CCCc2nnc(C)o2)c2cc(C)c3oc(=O)n(C)c3c2)cc(C)c1OC | HIV-1RF | y |
| CO/N=C(\Cl)CCC/C=C(\c1cc(C)c(OC)c(C(=O)SC)c1)c1cc(C)c2oc(=O)n(C)c2c1 | HIV-1RF | n |
| CON=C(F)c1cc(/C(=C\CCCc2nnc(C)o2)c2cc(C)c3oc(=O)n(C)c3c2)cc(C)c1OC | HIV-1RF | n |

Q: hey, is SI (CC50/EC50) CEM-SS cells for CON=C(Cl)c1cc(/C(=C\CCCc2nc(C)no2)c2cc(C)c3oc(=O)n(C)c3c2)cc(C)c1OC lower than 7 or not?
A: y

Q: Does the reported SI (CC50/EC50) CEM-SS cells of the following molecule sit strictly below 7? CON=C(Cl)c1cc(/C(=C\CCCc2nnc(C)o2)c2cccc(C#N)c2)cc(C)c1OC
A: y

----------
# System Under Test: HIV-1 reverse transcriptase (Human immunodeficiency virus type 1 group M subtype B, UniProt P04585)
Listed compounds paired with reported pIC50
To interpret pIC50, take it as minus log10 of a concentration measured in moles per litre.

See these solved cases before continuing.
| Structure String | pIC50 |
| --- | --- |
| CON=C(F)c1cc(/C(=C\CCCc2nnc(C)o2)c2ccc(C#N)cc2)cc(C)c1OC | 4.35 |
| CON=C(F)c1cc(/C(=C\CCCc2nc(C)no2)c2cccc(C#N)c2)cc(C)c1OC | 5.27 |
| CON=C(F)c1cc(/C(=C\CCCc2nnc(C)o2)c2cc(C)c3onc(OC)c3c2)cc(C)c1OC | 5.85 |
| CON=C(Cl)c1cc(/C(=C\CCCc2nc(C)no2)c2ccc(C#N)cc2)cc(C)c1OC | 7.00 |

Q: Which pIC50 value is on record for CON=C(F)c1cc(/C(=C\CCCc2nnc(C)o2)c2cccc(C#N)c2)cc(C)c1OC ?
A: 4.43
